Assay read-out pIC50; system under study: Lysine-specific histone demethylase 1A (Homo sapiens, UniProt O60341).
pIC50: −log10 of the molar value.
observation_type: pIC50

Below: 5 molecules and their reported pIC50.
smiles_notation: FC(F)(F)Cc1cc2c(N3CCC(CN[C@@H]4C[C@H]4c4ccccc4)CC3)ncnc2s1
pIC50: 7.07
--
smiles_notation: Fc1ccc([C@@H]2C[C@H]2NCC2CCN(c3ncnc4sc(CC(F)(F)F)cc34)CC2)cc1F
pIC50: 6.60
--
smiles_notation: FC(F)(F)Cc1cc2c(N3CCC(N[C@H]4C[C@@H]4c4ccccc4)CC3)ncnc2s1
pIC50: 6.16
--
smiles_notation: FC(F)(F)Cc1cc2c(N3CCC(N[C@@H]4C[C@H]4c4ccccc4)CC3)ncnc2s1
pIC50: 6.67
--
smiles_notation: FC(F)(F)Cc1cc2c(N[C@H]3CC[C@@H](N[C@H]4C[C@@H]4c4ccccc4)CC3)ncnc2s1
pIC50: 6.62

[P] FC(F)(F)Cc1cc2c(N[C@H]3CC[C@H](N[C@@H]4C[C@H]4c4ccccc4)CC3)ncnc2s1
[Q] FC(F)(F)Cc1cc2c(N[C@H]3CC[C@H](CN[C@H]4C[C@@H]4c4ccccc4)CC3)ncnc2s1
Asked: Higher pIC50: P or Q ? Your answer should be the label of the entry you select.
Given back: Q
